test: NCI Yeast Anticancer Drug Screen. Data for the cln2 rad14 strain (AID 165);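 also: 0% = growth equal to vehicle treated cultures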; conditions: S. cerevisiae cln2 rad14 strain, at 50.0 µM, active compounds read high
This is part of a sample that, as a whole, favours compounds with a hit. Of some 79,000 tested, about 15% had one in any assay.
measurement.kind: growth inhibition (%)
Entry rule: numbers only, all in %.

Field: example entries. Status: answers known.
compound	growth inhibition, %
O=c1nc2n(CCN(CCCl)CCCl)c3cc(Cl)c(Cl)cc3nc-2c(=O)[nH]1	34.6
O=[As](O)(O)CCc1ccccc1	17.4
O=[N+]([O-])c1ccc(Cl)c([N+](=O)[O-])c1	96.3
CCN(CC)C(=S)SCc1ccccc1OC(=O)NC	-43.5
CCCCSP(=S)(SCCCC)c1ccc(Cl)cc1	17.6

Data request: // growth inhibition lookup, key: CCCCCCC[CH2][Sn][CH2]CCCCCCC.Nc1ncnc2c1ncn2C1OC(CO)C2[OH+][OH+]C21 (stereo unspecified)
Data returned: -4

Data request: Try this compound too: O=C1c2ccccc2C[CH]1[Hg][Cl] (stereo unspecified)
Data returned: 96.2

Data request: Also CCC1(Sc2ncnc3c2ncn3C2OC(CO)C(O)C2O)C(=O)NC(=O)NC1=O (stereo unspecified) ?
Data returned: 16.9

Data request: Next compound: Cc1cc[n+](C2=C(Nc3c(C)cccc3C)C(=O)c3ccccc3C2=O)cc1
Data returned: 15.2

Data request: Again, but for O=[N+]([O-])c1cc[n+]([O-])c2ccccc12
Data returned: 99.3

Data request: Thanks! And CC(=O)c1ccc([As](=O)(O)O)cc1 ?
Data returned: -21.4

Data request: Would you mind doing CN(C)c1ccc(N=Nc2cccc(C(=O)[O-])c2)cc1.CN(C)c1ccc(N=Nc2cccc(C(=O)[O-])c2)cc1.NC1CCCCC1N.[Pt+4] as well?
Data returned: 1.2

Data request: Queued: O=C1C(C(Nc2ccccc2)c2ccccc2)=C([O-])c2ccccc21.O=C1C(C(Nc2ccccc2)c2ccccc2)=C([O-])c2ccccc21.[Ni+2] (stereo unspecified)
Data returned: 55.8

Data request: Check O=[As]c1cccc2ccccc12 (stereo unspecified) too.
Data returned: 99.2

###

assay: NCI Yeast Anticancer Drug Screen. Data for the bub3 strain (AID 167); details: S. cerevisiae bub3 mutant strain, at 50.0 µM, active compounds read high
This is part of a sample that, as a whole, favours compounds with a hit. Of some 79,000 tested, about 15% had one in any assay.
Recorded growth inhibition, one value per entry.
Write the number in % without appending the unit.

Field: example entries. Status: answers known.
compound	growth inhibition [%]
CCOC(=O)C1OC(C2(C)OC3(OC4(C=CC3O)OC(C(C)C(=O)C(C)C(O)C(C)CC(C)c3c(Cl)cc(C)c(O)c3C(=O)O)C(C)CC4C)C(C)C2OC)CC1O (configuration not stated)	5.9
Cc1ccc(N)c(C)c1	3.2
O=S1(N2CC2)=NP(N2CC2)(N2CC2)=NP(N2CC2)(N2CC2)=N1 (configuration not stated)	-33
CCCCOCN(COCCCC)C(C)Cc1ccccc1 (configuration not stated)	-2.25
CC(C)CCC(=O)O[C@H]1CC[C@@]2(C)C(=CC[C@@H]3[C@@H]2CC[C@]2(C)C(=O)CC[C@@H]32)C1	1.95

API: the following record is the query input.
Data request: Please report the recorded growth inhibition for Cc1cccc(NC(=O)CCl)c1 .
Data returned: 21.9

###

test: NCI Yeast Anticancer Drug Screen. Data for the cln2 rad14 strain (AID 165);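 also: 0% = growth equal to vehicle treated cultures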; conditions: S. cerevisiae cln2 rad14 strain, at 50.0 µM, active compounds read high
Compounds without any hit were thinned out: in the full panel of roughly 79,000, 15% have a hit.
measurement.kind: growth inhibition (%)
Could you give me the number in %? Just the number is fine.

Some entries whose results are on file:
compound	growth inhibition (%)
CNC(C)(C)Cc1ccc(Cl)cc1	24.9
CC12OCCN1CCO2	5.45
CN(C)CCNC(=O)c1ccc([N+](=O)[O-])c(C(C)(C)C(=O)Nc2ccc(N(CCCl)CCCl)cc2)c1	-44.2
O=C(OCC(CCl)OC(=O)C(Cl)(Cl)Cl)C(Cl)(Cl)Cl (stereo unspecified)	78.5
O=C1NC(=O)C(CCC(=O)c2ccc3ccccc3c2)C(=O)N1	-10.8

Data request: # lookup: growth inhibition of Cc1cc(N(CCCl)CCCl)ccc1C1N(Cc2ccc(Cl)cc2Cl)CCCN1Cc1ccc(Cl)cc1Cl
Data returned: 14.4

Data request: And CCCCC(CC)COP(OCC(CC)CCCC)OCC(CC)CCCC.[Br][Hg][Br] (stereo unspecified) ?
Data returned: -8.25

Data request: // query: CC(=O)[O][Sn]([c]1ccccc1)([c]1ccccc1)[c]1ccccc1
Data returned: 92.8

Data request: Same for COc1ccc2[nH]cc(CN(C)C)c2c1
Data returned: 5.3

Data request: Repeat for the following compound: [N-]=[N+]=C1CNC(=O)NC1=O
Data returned: 0.05

Data request: Can you check CCOC(=O)C1C2(C)NC(=O)C1(Cc1ccccc1)c1ccc(O)cc1O2 (stereo unspecified) next?
Data returned: 0.05

###

Measured growth inhibition, listed per entry.
test: NCI Yeast Anticancer Drug Screen. Data for the sgs1 mgt1 strain (AID 161);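 also: 0% = growth of cultures given vehicle only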; settings: S. cerevisiae sgs1 mgt1 strain, at 50.0 µM, active compounds read high
This is part of a sample that, as a whole, favours compounds with a hit. Of some 79,000 tested, about 15% had one in any assay.
# unit: % | format: bare number

compound	test.value
Oc1cc(Br)c(O)c(Br)c1	29.9

Data request: Consider the compound shown here: CC1CCC2(OC1)OC1C(O)C3C4CCC5CC(OC6OC(CO)C(OC7OC(CO)C(O)C(OC8OCC(O)C(O)C8O)C7OC7OC(CO)C(O)C(OC8OC(CO)C(O)C(O)C8O)C7O)C(O)C6O)C(O)CC5(C)C4CCC3(C)C1C2C (configuration not stated) What is its recorded growth inhibition?
Data returned: 93.8

Data request: Try the compound COc1ccc2n[se]nc2c1
Data returned: 26.9

Data request: Another compound to check: O=C(O)C(CSC(c1ccccc1)c1ccccc1)N1C(=O)c2ccccc2C1=O (configuration not stated)
Data returned: 46.4

Data request: Another compound to look at: CCN(CCCl)c1cc(CN(C)C)cc(NC(=O)c2cc(C(=O)Nc3cc(CN(C)C)cc(N(CC)CCCl)c3)n(C)n2)c1
Data returned: 27.9

Data request: Try the compound O=C(O)c1cccc2cccc(C(=O)O)c12.[Hg]
Data returned: 99.7

Data request: Now give it for O=C1CCP(c2ccccc2)(c2ccccc2)(c2ccccc2)O1 too.
Data returned: 23.1

Data request: Now consider CNC1(c2ccccc2)CC1 .
Data returned: 0.95

Data request: Consider next the compound CCN(CC)CCN(Cc1ccccc1)C(=O)C(O)(c1ccccc1)c1ccccc1 in the same way.
Data returned: -4.05

Data request: # repeat for CCCCCCN1C(C)C1C(C)C (configuration not stated)
Data returned: 2.25

Data request: Now give it for CCCC(=O)O.[Ni] too.
Data returned: -6

Data request: Another: c1ccc2c(c1)[Se]c1ccccc1[Se]2
Data returned: 0.65

Data request: Okay, and CN(C)c1ccc(/C=C/[N+](=O)[O-])cc1 ?
Data returned: 12.4

###

Form field: growth inhibition (one value per entry).
test: NCI Yeast Anticancer Drug Screen. Data for the mec2-1 strain (AID 157); conditions: S. cerevisiae mec2-1 strain, at 5.0 µM (retest, dose inferred, filed as 0.5), active compounds read high
This is part of a sample that, as a whole, favours compounds with a hit. Of some 79,000 tested, about 15% had one in any assay.
Lab book: enter the figure in %, no units written.

Consider the reported growth inhibition for these molecules:
molecule	measurement.kind	test.value
Nc1cccc([As]=S)c1 (stereo not given)	growth inhibition	11
Clc1ccccc1C#[C][Hg][C]#Cc1ccccc1Cl	growth inhibition	3
O=C(O)c1ccc([Se][Se]c2ccc(C(=O)O)cc2)cc1	growth inhibition	39
COc1ccc([Se][Se]c2ccc(OC)cc2OC)c(OC)c1	growth inhibition	23
O=C(Nc1ccccc1)c1cc([N+](=O)[O-])ccc1O.[Ni]	growth inhibition	34
CCOP(=O)(O)C(Nc1ccc(N=Nc2ccccc2)cc1)c1ccc(C(Nc2ccc(N=Nc3ccccc3)cc2)P(=O)(O)OCC)cc1 (stereo not given)	growth inhibition	-6
CCOC(=O)NP(=O)(NNc1ccccc1)NNc1ccccc1	growth inhibition	82
C[SH+]c1ccccc1N=Cc1ccccn1.C[SH+]c1ccccc1N=Cc1ccccn1.[Ni+2].[O-][Cl+3]([O-])([O-])[O-]	growth inhibition	-5
Cc1cc2c(cc1O)C(C)(C)CCC2(C)C	growth inhibition	-1

Now examine the next entry.
Data request: Value lookup for growth inhibition; key = C#CCN1C(=O)N(CC#C)C(=O)C(CC#C)(C(CC=C)c2ccccc2)C1=O (stereo not given)
Data returned: 2

###

assay: NCI Yeast Anticancer Drug Screen. Data for the bub3 strain (AID 167); conditions: S. cerevisiae bub3 mutant strain, at 50.0 µM
This is part of a sample that, as a whole, favours compounds with a hit. Of some 79,000 tested, about 15% had one in any assay. Calls of active or inactive are those of the source. Rule as the data show it: active = growth inhibition above about 70%; inactive = the rest.
The reply should be one of these categories: T (active), F (inactive)

The examples below pair each entry with its known result.
compound	label.value
CN1C(=O)CC(=O)N(C)P1(=O)Oc1ccccc1	F
Cc1cc(C(C)(C)c2ccc(O)c(C)c2)ccc1O	T
CC(N)C(O)c1ccc(O)cc1 (stereo not given)	F
O=C(Oc1ccc(S(=O)(=O)F)cc1F)c1ccccc1Cl	T
O=P(CCP(=O)(c1ccccc1)c1ccccc1)(c1ccccc1)c1ccccc1.[Cl][Sn]([Cl])([c]1ccccc1)[c]1ccccc1	T

Data request: Please indicate how the test categorized Nc1ccc(C(=O)O)c(C(=O)O)c1.[Cl][Sn]([Cl])([Cl])[Cl] .
Data returned: T

Data request: And then CN1C2CCC1CC(=O)C2 , what is it?
Data returned: F

Data request: Could you do the same for O=C(CC([Se]c1ccccc1)c1ccccc1)c1ccccc1 (stereo not given) , please?
Data returned: T

Data request: CCCCCCCCCCOC(=O)CC(C)=O.CCCCCCCCCCOC(=O)CC(C)=O.[Ni+2] , same question.
Data returned: F

Data request: Then this compound: CCN1CC2(C)CCC(OC)C34C5CC6CCC(O)(C5C(=O)O6)C(C(O)C23)C14 (stereo not given)
Data returned: F

Data request: Try the compound O=[P+](O)c1cc2ccccc2c2ccccc12
Data returned: F

Data request: Cool, now O=[N+]([O-])c1ccc(N(CCO)CCO)c2c1no[n+]2[O-]
Data returned: F

Data request: Same question for CC1CC[N-]C(C)C1.CN(C)C=O.[Cl][Pt][Cl] (stereo not given) please.
Data returned: T

Data request: Now give it for O=[N+]([O-])c1ccc(C2C3CC4C(OOC42)C3I)cc1 (stereo not given) too.
Data returned: T

Data request: Same thing, different compound: CN(C)CCNC(=O)c1cccc(COC(=O)Nc2ccc(N(CCCl)CCCl)cc2)c1[N+](=O)[O-]
Data returned: F

Data request: What do we get for CCCCOS(C)(=O)=O ?
Data returned: F

Data request: Also O=C(N/N=C/c1cc(Br)cc(Br)c1[O-])c1ccccc1O.O=C(N/N=C/c1cc(Br)cc(Br)c1[O-])c1ccccc1O.[Fe+2] , if possible.
Data returned: F

Data request: Entry O=C(O)CCCNSc1ccccc1[N+](=O)[O-] please
Data returned: F

Data request: Same again, this time with O=C(CC(=O)c1ccccc1)c1ccccc1.O=C(CC(=O)c1ccccc1)c1ccccc1.O=C(CC(=O)c1ccccc1)c1ccccc1.[Al]
Data returned: F

Data request: Also, CCCC[As](CCCC)SC1CCC2(C)C(=CCC3C4CCC(=O)C4(C)CCC32)C1 (stereo not given) please.
Data returned: T

Data request: Cool, now CCCCCCNCCc1cnc[nH]1
Data returned: F

Data request: Would you kindly repeat that for O=c1oc2ccccc2c(O)c1C(c1cnc2ccccc2c1)c1c(O)c2ccccc2oc1=O ?
Data returned: F

Data request: Entry c1ccc2c(c1)sc1sc3c([n+]12)CCCC3 please
Data returned: F
